target_under_test: Cytochrome P450 2C8 (Homo sapiens)
Sequence (P10632 whole entry): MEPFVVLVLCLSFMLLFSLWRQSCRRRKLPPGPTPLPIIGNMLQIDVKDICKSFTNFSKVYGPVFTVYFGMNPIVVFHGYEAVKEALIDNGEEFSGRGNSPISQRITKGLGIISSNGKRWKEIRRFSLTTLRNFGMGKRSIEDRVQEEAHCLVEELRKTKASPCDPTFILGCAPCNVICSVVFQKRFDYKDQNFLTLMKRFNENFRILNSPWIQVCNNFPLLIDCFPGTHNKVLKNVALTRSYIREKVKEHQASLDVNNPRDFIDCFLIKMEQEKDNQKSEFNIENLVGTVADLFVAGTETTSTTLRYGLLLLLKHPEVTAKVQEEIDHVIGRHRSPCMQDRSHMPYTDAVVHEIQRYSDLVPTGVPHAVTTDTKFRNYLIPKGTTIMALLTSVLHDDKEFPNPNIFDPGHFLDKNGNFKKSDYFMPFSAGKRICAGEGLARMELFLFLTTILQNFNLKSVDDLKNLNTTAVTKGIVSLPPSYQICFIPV
Exercise: for every item that follows, state its recorded pIC50.
Numbers only, as −log10 of the molar value.

* Cc1cnc(-c2cc(Cl)ccc2F)cc1Nc1ccnc2cn[nH]c12 | 6.40

Fill in: Cytochrome P450 2C8 (Homo sapiens) pIC50 for `Cc1cnc(-c2cc(F)ccc2F)cc1Nc1ccnc2cn[nH]c12` = 6.50
